Assay: label from the status in PepcDB records
metric: protein production

query.sequence: VEGFKVMRDGIKVASDETLLTPRFYTTDFDEMERLFSLELNKNMDMEEFEAMLNEFKLDYNQRHFVRNETFKEAAEKIQGPTRKIFIEFLERSCTAEFSGFLLYKELGRRLKATNPVVAEIFTLMSRDEARHAGFLNKAMSDFNLALDLGFLTKNRKYTFFKPKFIFYATYLSEKIGYWRYISIYRHLQRNPDNQLYPLFEYFENWCQDENRHGDFFTAVLKARPEMVNDWAAKLWSRFFCLSVYITMYLNDHQRDAFYSSLGLNTTQFNQHVIIETNKSTERIFPAVPDVENPEFFRRMDLLVKYNAQLVNIGSMNLPSPIKAIMKAPILERMVAEVFQVFIMTPKESGSYDLDANKTALVY
protein production: not failed

query.sequence: MAEATSALRKPVFTKVNELRPGTNGHSLNVKVVNTKMVMQRGGGRPMGPQSRQMRIAECLVGDETGIIIFTARNDQVDMMKEGSVVTLRNAKIDMYKGSMRLAVDRWGRVEVAEEPTDITVKDDNNLSLIEYELVSVET
protein production: failed

query.sequence: TGQDAYGQVTEMQYVVYAFSKVETIFSDMYAFAALKTDGSVVTWGYSDYGGDSSSVAGQLTSGVKVIDSTSSAFAAIKEDGSVVTWGDSPYGGDSSSVAGKLTSGVKVIYSNSSAFAAVKQDGSVVTWGSYGGDSSSVAGQLTSGVKVIYSTDSEFGAFAAVKEDGSVVTWGNSPYGGDSSSVAGQLTSGVKVIYSTNNAFAAVKEDGSVVTWGDSGAGGDSSSVAGQLT
protein production: failed

query.sequence: MAFTPFPPRQPTASARLPLTLMTLDDWALATITGADSEKYMQGQVTADVSQMAEDQHLLAAHCDAKGKMWSNLRLFRDGDGFAWIERRSVREPQLTELKKYAVFSKVTIAPDDERVLLGVAGFQARAALANLFSELPSKEKQVVKEGATTLLWFEHPAERFLIVTDEATANMLTDKLRGEAELNNSQQWLALNIEAGFPVIDAANSGQFIPQATNLQALGGISFKKGCYTGQEMVARAKFRGANKRALWLLAGSASRLPEAGEDLELKMGENWRRTGTVLAAVKLEDGQVVVQVVMNNDMEPDSIFRVRDDANTLHIEPLPYSLEE
protein production: not failed

Data point: MARTIENMAKPASDMPPYDKAAALRGLAGARRVALLMAPRLGDTLLMMNMARNLAAHGREVSIFGDYIHGLRDWFPGLDIRPSLSEEQAGQVLPGYDCAAQMHVGWPYALHAHQPNYFYYDAHVAITGRGFVKLFQIRDFCREQLGLAQAGADNGLRPPPQVQPHRSHPRRVALHPTSTGAQRCWAPRHFKELGLRLLHEGYEPNYIVAPHERAEWSWVLDHGLHLPQFPSLSEVAGFIHASGWFIGNESGIGHLASNVGVPTLSLTGRPTRTRAWRPAWSTSRIVYPALIPGGRWRDRLWREWLSPRRVMSAFHKLQADDRRQPVGVPWGKI ; protein production = failed
